Could you please report measured Ki for the items listed next?
# tested-system: aaTHEP1 (Aquifex aeolicus)
# Sequence (O67322 1-178): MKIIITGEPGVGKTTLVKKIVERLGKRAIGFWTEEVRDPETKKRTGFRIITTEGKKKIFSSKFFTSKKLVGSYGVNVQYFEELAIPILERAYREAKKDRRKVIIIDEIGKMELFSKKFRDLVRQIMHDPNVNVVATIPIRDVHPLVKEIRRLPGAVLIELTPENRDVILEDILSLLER
Your answer is read as µM, so omit the unit and give the number.

In: Return reported Ki. Input molecule: "Nc1ccn([C@@H]2O[C@H](COP(=O)(O)OP(=O)(O)OP(=O)(O)O)[C@@H](O)[C@H]2O)c(=O)n1"
Out: 6

In: Return reported Ki. Input molecule: "Nc1ncnc2c1ncn2[C@H]1C[C@H](O)[C@@H](COP(=O)(O)OP(=O)(O)OP(=O)(O)O)O1"
Out: 3

In: Return reported Ki. Input molecule: "Cc1cn([C@H]2C[C@H](O)[C@@H](COP(=O)(O)OP(=O)(O)OP(=O)(O)O)O2)c(=O)[nH]c1=O"
Out: 6

In: Return reported Ki. Input molecule: "O=c1ccn([C@@H]2O[C@H](COP(=O)(O)OP(=O)(O)OP(=O)(O)O)[C@@H](O)[C@H]2O)c(=O)[nH]1"
Out: 5

In: Return reported Ki. Input molecule: "Nc1nc2c(ncn2[C@@H]2O[C@H](COP(=O)(O)OP(=O)(O)OP(=O)(O)O)[C@@H](O)[C@H]2O)c(=O)[nH]1"
Out: 57

In: Return reported Ki. Input molecule: "Nc1ccn([C@H]2C[C@H](O)[C@@H](COP(=O)(O)OP(=O)(O)OP(=O)(O)O)O2)c(=O)n1"
Out: 9

In: Return reported Ki. Input molecule: "Nc1nc2c(ncn2[C@H]2C[C@H](O)[C@@H](COP(=O)(O)OP(=O)(O)OP(=O)(O)O)O2)c(=O)[nH]1"
Out: 18
